Give measured fold selectivity for GppNHp-bound over GDP-bound Gαs for each item. Keep answers brief.
# Target: T1, Biotinylated His/Avi-tagged Gαs used in the RaPID selection, GppNHp-bound (human, UniProt P63092 7-394, biotin on the Avi tag (BirA co-expressed))
# T1 construct: Immobilized on streptavidin magnetic beads
# T1 sequence (P63092 other isoform, or with tags, fused parts or gaps limits assumed): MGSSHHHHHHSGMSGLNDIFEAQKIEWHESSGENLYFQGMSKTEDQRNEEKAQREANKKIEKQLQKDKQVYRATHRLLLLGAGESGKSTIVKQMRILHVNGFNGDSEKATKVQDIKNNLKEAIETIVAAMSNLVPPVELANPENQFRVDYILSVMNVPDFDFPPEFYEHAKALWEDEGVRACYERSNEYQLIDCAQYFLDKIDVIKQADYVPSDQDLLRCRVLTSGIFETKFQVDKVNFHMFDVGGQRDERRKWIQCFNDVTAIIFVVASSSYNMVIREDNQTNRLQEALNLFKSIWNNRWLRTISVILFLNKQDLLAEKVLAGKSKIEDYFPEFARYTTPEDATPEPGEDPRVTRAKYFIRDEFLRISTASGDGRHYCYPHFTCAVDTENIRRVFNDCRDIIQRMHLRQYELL
# Procedure summary: RaPID comparison selection: peptide-mRNA-cDNA complexes on Gαs-immobilized streptavidin beads, qPCR and sequencing
Positions of bridges follow the written chain, without caps; N, C: chain ends. Non-standard residues stand in square brackets, D forms with d.

Example results:
Binder	Value reported
{CH2CO}-[dY]QYTYPYLVIDWTCG-NH2 (thioether N-14; SMILES CC[C@H](C)[C@@H]1NC(=O)[C@H](C(C)C)NC(=O)[C@H](CC(C)C)NC(=O)[C@H](Cc2ccc(O)cc2)NC(=O)[C@@H]2CCCN2C(=O)[C@H](Cc2ccc(O)cc2)NC(=O)[C@H]([C@@H](C)O)NC(=O)[C@H](Cc2ccc(O)cc2)NC(=O)[C@H](CCC(N)=O)NC(=O)[C@@H](Cc2ccc(O)cc2)NC(=O)CSC[C@@H](C(=O)NCC(N)=O)NC(=O)[C@H]([C@@H](C)O)NC(=O)[C@H](Cc2c[nH]c3ccccc23)NC(=O)[C@H](CC(=O)O)NC1=O) [GN8]	> 100 fold
{CH2CO}-[dY]SWPNQFDWFIELCG-NH2 (thioether N-14; SMILES CC[C@H](C)[C@@H]1NC(=O)[C@H](Cc2ccccc2)NC(=O)[C@H](Cc2c[nH]c3ccccc23)NC(=O)[C@H](CC(=O)O)NC(=O)[C@H](Cc2ccccc2)NC(=O)[C@H](CCC(N)=O)NC(=O)[C@H](CC(N)=O)NC(=O)[C@@H]2CCCN2C(=O)[C@H](Cc2c[nH]c3ccccc23)NC(=O)[C@H](CO)NC(=O)[C@@H](Cc2ccc(O)cc2)NC(=O)CSC[C@@H](C(=O)NCC(N)=O)NC(=O)[C@H](CC(C)C)NC(=O)[C@H](CCC(=O)O)NC1=O) [GN7]	> 100 fold

// switching to the query binder
// query Specify measured fold selectivity for GppNHp-bound over GDP-bound Gαs for {CH2CO}-[dY]QFIEVWPFYLPCG-NH2 (thioether N-13; SMILES CC[C@H](C)[C@@H]1NC(=O)[C@H](Cc2ccccc2)NC(=O)[C@H](CCC(N)=O)NC(=O)[C@@H](Cc2ccc(O)cc2)NC(=O)CSC[C@@H](C(=O)NCC(N)=O)NC(=O)[C@@H]2CCCN2C(=O)[C@H](CC(C)C)NC(=O)[C@H](Cc2ccc(O)cc2)NC(=O)[C@H](Cc2ccccc2)NC(=O)[C@@H]2CCCN2C(=O)[C@H](Cc2c[nH]c3ccccc23)NC(=O)[C@H](C(C)C)NC(=O)[C@H](CCC(=O)O)NC1=O, the number is its rank in the selection) [GN1] .
// result > 100 fold

Taken from patent US20240336657A1.
